Cited source for all entries: patent US20260317320A1

# TARGET_OR_SYSTEM: complement C5a receptor 1 (C5aR1) (Homo sapiens, UniProt P21730)
# Construct: β-galactosidase fragment (PathHunter enzyme complementation); host or cells: CHO-K1 (PathHunter CHO-K1 C5aR1 β-arrestin cell line)
# Sequence (P21730 whole entry, the tested form may be a part): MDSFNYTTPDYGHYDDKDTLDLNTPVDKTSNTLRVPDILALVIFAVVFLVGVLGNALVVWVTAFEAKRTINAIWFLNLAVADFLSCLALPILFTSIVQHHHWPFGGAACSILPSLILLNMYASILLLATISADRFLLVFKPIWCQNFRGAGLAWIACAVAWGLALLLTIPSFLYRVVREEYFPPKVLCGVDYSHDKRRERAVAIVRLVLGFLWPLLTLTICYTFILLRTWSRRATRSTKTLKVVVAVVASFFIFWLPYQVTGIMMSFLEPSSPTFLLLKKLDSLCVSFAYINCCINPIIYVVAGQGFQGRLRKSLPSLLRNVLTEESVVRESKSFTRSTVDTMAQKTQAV
# PROTOCOL_DESCRIPTION: β-arrestin recruitment via C5aR1 activation in live CHO-K1 cells (PathHunter), antagonist mode
# Format: cell-based
# CONDITION_SET: antagonist mode; recombinant hC5a (EC90) as competing natural agonist; live CHO-K1 cells; read-out: [Antagonist] B-arrestin2 recruitment: Average IC50
pIC50: −log10 of the molar value.
PROPERTY: pIC50

Worked set:
COMPOUND: Cc1cccc(F)c1N1CCC(c2cc3nccnc3n(Cc3cncnc3C(F)(F)F)c2=O)CC1 [compound 116]
PROPERTY: pIC50
RECORDED_RESULT: 5.30 to 6.30
--
COMPOUND: Cc1cccc(F)c1N1CCC(c2cc3ncncc3n(Cc3ncccc3C(F)(F)F)c2=O)CC1 [compound 84]
PROPERTY: pIC50
RECORDED_RESULT: < 4.00
--
COMPOUND: Cc1cnc2cc([C@H]3CC[C@H](c4c(F)cccc4F)CC3)c(=O)n(Cc3ncccc3C3CC3)c2n1 [compound 235]
PROPERTY: pIC50
RECORDED_RESULT: > 6.30
--
COMPOUND: COc1ccnc(F)c1N1CCC(c2cc3ncc(C)nc3n(Cc3nccnc3C(F)(F)F)c2=O)CC1 [compound 80]
PROPERTY: pIC50
RECORDED_RESULT: 5.30 to 6.30
--
COMPOUND: Cc1ccc2cc([C@H]3CC[C@H](c4c(C)cccc4F)CC3)c(=O)n(Cc3ncccc3C(F)(F)F)c2n1 [compound 183]
PROPERTY: pIC50
RECORDED_RESULT: > 6.30

The compound listed as Cc1c(C2CCN(c3ccccc3C(F)(F)F)CC2)c(=O)n(Cc2nccnc2F)c2nccnc12 [compound 77] has a reported pIC50 of 5.30 to 6.30

The compound listed as Cc1cnc2c(cc(C3CCN(c4c(C)cccc4F)CC3)c(=O)n2Cc2ccccc2C(F)(F)F)n1 [compound 55] has a reported pIC50 of 5.30 to 6.30

The compound listed as Cc1cccc(F)c1N1CCC(c2cc3nccnc3n(Cc3ccccc3C(F)(F)F)c2=O)CC1 [compound 1] has a reported pIC50 of > 6.30

The compound listed as Cc1cnc2c(cc([C@H]3CC[C@H](c4c(C)cccc4F)CC3)c(=O)n2Cc2ncccc2C(F)(F)F)n1 [compound 182] has a reported pIC50 of > 6.30

The compound listed as Cc1ncc(F)cc1N1CCC(c2cc3nccnc3n(Cc3ncccc3C(F)(F)F)c2=O)CC1 [compound 44] has a reported pIC50 of < 4.00

The compound listed as Cc1cnc2cc([C@H]3CC[C@H](c4c(C)cccc4F)CC3)c(=O)n(Cc3ccccc3C(F)(F)F)c2n1 [compound 224] has a reported pIC50 of > 6.30
